tested on: Escherichia coli TOP10; test: shrunken log2 fold change of peptide-encoding DNA abundance (4.5 h post-induction vs induction); higher = less antimicrobial activity (less host growth inhibition); details: time post-induction: 4.5 h; library: site-saturation at positions 5, 18, 19, 20
Mark T for reported shrunken log2 fold change of -0.02 or greater; mark F for anything smaller.

Determine whether this sequence has shrunken log2 fold change no lower than -0.02: RRIRIRPPRLPRPRPRPHLNPRP
F

Determine whether this sequence has shrunken log2 fold change no lower than -0.02: RRIRERPPRLPRPRPRPFGTPRP
F

Determine whether this sequence has shrunken log2 fold change no lower than -0.02: RRIRTRPPRLPRPRPRPKWYPRP
F

Determine whether this sequence has shrunken log2 fold change no lower than -0.02: RRIRQRPPRLPRPRPRPMWGPRP
F

Determine whether this sequence has shrunken log2 fold change no lower than -0.02: RRIRARPPRLPRPRPRPDVPPRP
F

Determine whether this sequence has shrunken log2 fold change no lower than -0.02: RRIRGRPPRLPRPRPRPWPHPRP
T

Determine whether this sequence has shrunken log2 fold change no lower than -0.02: RRIRCRPPRLPRPRPRPSSPPRP
F

Determine whether this sequence has shrunken log2 fold change no lower than -0.02: RRIRMRPPRLPRPRPRPWRGPRP
T

Determine whether this sequence has shrunken log2 fold change no lower than -0.02: RRIRSRPPRLPRPRPRPDGWPRP
T

Determine whether this sequence has shrunken log2 fold change no lower than -0.02: RRIRERPPRLPRPRPRPFLTPRP
F

Determine whether this sequence has shrunken log2 fold change no lower than -0.02: RRIRSRPPRLPRPRPRPFTYPRP
T

Determine whether this sequence has shrunken log2 fold change no lower than -0.02: RRIRGRPPRLPRPRPRPQPPPRP
T

Determine whether this sequence has shrunken log2 fold change no lower than -0.02: RRIRFRPPRLPRPRPRPMRIPRP
T

Determine whether this sequence has shrunken log2 fold change no lower than -0.02: RRIRFRPPRLPRPRPRPHYCPRP
F

Determine whether this sequence has shrunken log2 fold change no lower than -0.02: RRIRFRPPRLPRPRPRPEACPRP
F

Determine whether this sequence has shrunken log2 fold change no lower than -0.02: RRIRHRPPRLPRPRPRPRHIPRP
F

Determine whether this sequence has shrunken log2 fold change no lower than -0.02: RRIRVRPPRLPRPRPRPMNTPRP
F

Determine whether this sequence has shrunken log2 fold change no lower than -0.02: RRIRYRPPRLPRPRPRPISAPRP
F

Determine whether this sequence has shrunken log2 fold change no lower than -0.02: RRIRHRPPRLPRPRPRPEVWPRP
T

Determine whether this sequence has shrunken log2 fold change no lower than -0.02: RRIRYRPPRLPRPRPRPDLYPRP
F

Determine whether this sequence has shrunken log2 fold change no lower than -0.02: RRIRCRPPRLPRPRPRPTNCPRP
F

Determine whether this sequence has shrunken log2 fold change no lower than -0.02: RRIRSRPPRLPRPRPRPQAPPRP
T

Determine whether this sequence has shrunken log2 fold change no lower than -0.02: RRIRVRPPRLPRPRPRPTYNPRP
F

Determine whether this sequence has shrunken log2 fold change no lower than -0.02: RRIRNRPPRLPRPRPRPGELPRP
F

Determine whether this sequence has shrunken log2 fold change no lower than -0.02: RRIRCRPPRLPRPRPRPEFEPRP
T

Determine whether this sequence has shrunken log2 fold change no lower than -0.02: RRIRIRPPRLPRPRPRPHHEPRP
F

====

test system: Escherichia coli TOP10; assay: shrunken log2 fold change of peptide-encoding DNA abundance (4.5 h post-induction vs induction); higher = less antimicrobial activity (less host growth inhibition); conditions: time post-induction: 4.5 h; library: site-saturation at positions 5, 18, 19, 20;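 also: peptides expressed intracellularly from a pBAD plasmid library in pooled LB shake-flask culture, induced with 0.3% L-arabinose, DNA abundance read by NGS, three biological replicates, DESeq2 with apeglm shrinkage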
Please go through the items and note down their shrunken log2 fold change.

Endpoint output: shrunken log2 fold change of RRIRYRPPRLPRPRPRPKKCPRP . Value?
-0.0883

Endpoint output: shrunken log2 fold change of RRIRPRPPRLPRPRPRPMRAPRP . Value?
0.788

Endpoint output: shrunken log2 fold change of RRIRGRPPRLPRPRPRPQTIPRP . Value?
0.28

Endpoint output: shrunken log2 fold change of RRIRERPPRLPRPRPRPPGTPRP . Value?
0.152

Endpoint output: shrunken log2 fold change of RRIRFRPPRLPRPRPRPYEPPRP . Value?
-0.204

Endpoint output: shrunken log2 fold change of RRIRNRPPRLPRPRPRPPHEPRP . Value?
0.256

Endpoint output: shrunken log2 fold change of RRIRGRPPRLPRPRPRPIWMPRP . Value?
0.245

Endpoint output: shrunken log2 fold change of RRIRIRPPRLPRPRPRPCPQPRP . Value?
-0.458

Endpoint output: shrunken log2 fold change of RRIRNRPPRLPRPRPRPWYPPRP . Value?
-0.215

Endpoint output: shrunken log2 fold change of RRIRPRPPRLPRPRPRPDVLPRP . Value?
-0.709

Endpoint output: shrunken log2 fold change of RRIRFRPPRLPRPRPRPYVHPRP . Value?
-1.75

Endpoint output: shrunken log2 fold change of RRIRMRPPRLPRPRPRPHFFPRP . Value?
-0.134

Endpoint output: shrunken log2 fold change of RRIRVRPPRLPRPRPRPMGFPRP . Value?
0.034

Endpoint output: shrunken log2 fold change of RRIRTRPPRLPRPRPRPDQKPRP . Value?
-0.056

Endpoint output: shrunken log2 fold change of RRIRGRPPRLPRPRPRPWWYPRP . Value?
-0.119

Endpoint output: shrunken log2 fold change of RRIRWRPPRLPRPRPRPFPKPRP . Value?
0.0146

Endpoint output: shrunken log2 fold change of RRIRWRPPRLPRPRPRPAFNPRP . Value?
-0.116

Endpoint output: shrunken log2 fold change of RRIRMRPPRLPRPRPRPIWGPRP . Value?
0.0405

Endpoint output: shrunken log2 fold change of RRIRRRPPRLPRPRPRPTWFPRP . Value?
0.0478

Endpoint output: shrunken log2 fold change of RRIRMRPPRLPRPRPRPWMYPRP . Value?
-0.0417

Endpoint output: shrunken log2 fold change of RRIRLRPPRLPRPRPRPKKMPRP . Value?
0.126

Endpoint output: shrunken log2 fold change of RRIRKRPPRLPRPRPRPLLMPRP . Value?
-0.109

Endpoint output: shrunken log2 fold change of RRIRLRPPRLPRPRPRPYIIPRP . Value?
-0.217

Endpoint output: shrunken log2 fold change of RRIRGRPPRLPRPRPRPTITPRP . Value?
0.526

Endpoint output: shrunken log2 fold change of RRIRIRPPRLPRPRPRPSIKPRP . Value?
-0.64

Endpoint output: shrunken log2 fold change of RRIRERPPRLPRPRPRPEKDPRP . Value?
-0.137

Endpoint output: shrunken log2 fold change of RRIRQRPPRLPRPRPRPSVKPRP . Value?
-0.0362

Endpoint output: shrunken log2 fold change of RRIRTRPPRLPRPRPRPDAWPRP . Value?
0.285

Endpoint output: shrunken log2 fold change of RRIRRRPPRLPRPRPRPGHTPRP . Value?
0.274

Endpoint output: shrunken log2 fold change of RRIRHRPPRLPRPRPRPFNPPRP . Value?
-0.17

Endpoint output: shrunken log2 fold change of RRIRVRPPRLPRPRPRPFDSPRP . Value?
-0.204

Endpoint output: shrunken log2 fold change of RRIRPRPPRLPRPRPRPRMDPRP . Value?
0.176

Endpoint output: shrunken log2 fold change of RRIRRRPPRLPRPRPRPGYCPRP . Value?
-0.0631

Endpoint output: shrunken log2 fold change of RRIRIRPPRLPRPRPRPKLMPRP . Value?
-0.171

Endpoint output: shrunken log2 fold change of RRIRDRPPRLPRPRPRPVLFPRP . Value?
0.13

Endpoint output: shrunken log2 fold change of RRIRQRPPRLPRPRPRPPQRPRP . Value?
0.655

Endpoint output: shrunken log2 fold change of RRIRIRPPRLPRPRPRPTEGPRP . Value?
0.00534

Endpoint output: shrunken log2 fold change of RRIRGRPPRLPRPRPRPRSKPRP . Value?
0.781

Endpoint output: shrunken log2 fold change of RRIRNRPPRLPRPRPRPARQPRP . Value?
0.304

Endpoint output: shrunken log2 fold change of RRIRDRPPRLPRPRPRPGPQPRP . Value?
-0.0494

Endpoint output: shrunken log2 fold change of RRIRHRPPRLPRPRPRPFPRPRP . Value?
0.0685

Endpoint output: shrunken log2 fold change of RRIRQRPPRLPRPRPRPVTQPRP . Value?
-0.378

Endpoint output: shrunken log2 fold change of RRIRFRPPRLPRPRPRPTNFPRP . Value?
-0.0824

Endpoint output: shrunken log2 fold change of RRIRMRPPRLPRPRPRPQFGPRP . Value?
0.104

Endpoint output: shrunken log2 fold change of RRIRSRPPRLPRPRPRPNDAPRP . Value?
0.0331

Endpoint output: shrunken log2 fold change of RRIRMRPPRLPRPRPRPGKMPRP . Value?
0.137

Endpoint output: shrunken log2 fold change of RRIRSRPPRLPRPRPRPCPRPRP . Value?
0.056

Endpoint output: shrunken log2 fold change of RRIRARPPRLPRPRPRPGGKPRP . Value?
0.563

Endpoint output: shrunken log2 fold change of RRIRYRPPRLPRPRPRPGALPRP . Value?
0.137

Endpoint output: shrunken log2 fold change of RRIRQRPPRLPRPRPRPEMGPRP . Value?
0.223

Endpoint output: shrunken log2 fold change of RRIRQRPPRLPRPRPRPHFPPRP . Value?
-0.216

Endpoint output: shrunken log2 fold change of RRIRRRPPRLPRPRPRPMKWPRP . Value?
0.016

Source: the supplement of paper PMC9112550
